Property: growth; scope: individual compounds
# Test system: E. coli TESEC Mtb Asd
# experimental details: growth (OD600 after 10 h); higher = more growth (less inhibition)
# experimental conditions: arabinose induction (level): Low; compound 0.1 mM; raw OD600 reference: median of DMSO wells 0.417, cell-free background 0.041
Counter-ions that a name gives are not always drawn.
endpoint: growth

COc1cc(C(=O)NC2CCCNC2)cc(OC)c1OC (stereo not given) [Troxipide] : 0.427
CCOC(=O)C(C)(C)Oc1ccc(Cl)cc1 [Clofibrate] : 0.415
CS(=O)(=O)Nc1ccc([N+](=O)[O-])cc1Oc1ccccc1 [Nimesulide] : 0.329
CCN(CC)CCOC(=O)C(c1ccccc1)c1ccccc1 [Adiphenine hydrochloride] : 0.382
CO/N=C(\C(=O)N[C@@H]1C(=O)N2C(C(=O)O)=C(COC(N)=O)CS[C@H]12)c1ccco1 [Cefuroxime sodium salt] : 0.232
